Test system: NCI-H1703 cells
Assay Comment: GLS Cell Proliferation Assay (NCI-H1703 cell proliferation)
Type: cell-based
Experimental Setup: NCI-H1703 cells, 5 days; read-out: Assay c) Prolif Mean IC50
pIC50: −log10 of the molar value.
Quantity Kind: pIC50

a. COC1CN(c2cccc([C@H](OC)C(=O)Nc3nnc(N[C@@H]4CCN(c5ccc(F)nn5)C4)s3)c2)C1 (single isomer, unassigned) [9(b)]
b. CCO[C@H](C(=O)Nc1nnc(N[C@@H]2CCN(c3cccnn3)C2)s1)c1cccc(OC(F)(F)F)c1 (single isomer, unassigned) [19(b)]
c. CCO[C@H](C(=O)Nc1nnc(N[C@@H]2CCN(c3cccnn3)C2)s1)c1cccc(OC(F)F)c1 (single isomer, unassigned) [Example 17(a)]
d. CO[C@H](C(=O)Nc1nnc(N[C@@H]2CCN(c3cccnn3)C2)s1)c1cccc(N2CC(F)(F)C2)c1 (single isomer, unassigned) [2(b)]
e. CCOC(C(=O)Nc1nnc(N[C@@H]2CCN(c3cccnn3)C2)s1)c1cccc(N2CC(OC)C2)c1 (stereo partly shown) [Example 34]
Give the descending pIC50 ranking for the 5 molecules listed above. Reply: labels, ordered per the request.
c, b, e, d, a

A. COC(C(=O)Nc1nnc(N[C@@H]2CCN(c3cccnn3)C2)s1)c1ccc(F)c(N2CC(F)(F)C2)c1 (stereo partly shown) [Example 38]
B. COC(C(=O)Nc1nnc(N[C@@H]2CCN(c3ccc(F)nn3)C2)s1)c1cccc(N2CC(F)C2)c1 (single isomer, unassigned) [Example 27]
Form field 'greater pIC50' accepts A or B ; which applies? Use the label to indicate which entry you chose.
B

a. COC(C(=O)Nc1nnc(N[C@@H]2CCN(c3ccc(C)nn3)C2)s1)c1cccc(N2CC(F)C2)c1 (single isomer, unassigned) [Example 35]
b. CCOC(C(=O)Nc1nnc(N[C@@H]2CCN(c3cccnn3)C2)s1)c1cccc(N2CC(F)C2)c1 (single isomer, unassigned) [Example 31]
Form field 'greater pIC50' accepts a or b ; which applies? Use the label to indicate which entry you chose.
b
(b: 8.49, a: 8.04)

====

Test system: NCI-H1703 cells
Assay Comment: GLS Cell Proliferation Assay (NCI-H1703 cell proliferation)
Type: cell-based
Experimental Setup: Homo sapiens, NCI-H1703, 120 h, NCI-H1703 cells, 5 days; read-out: Assay c) Prolif Mean IC50
pIC50: −log10 of the molar value.
Quantity Kind: pIC50

- Molecule: "CCO[C@@H](C(=O)Nc1nnc(N[C@@H]2CCN(c3cccnn3)C2)s1)c1cccc(N2CC(OC)C2)c1"
  Target Desc: "NCI-H1703 cells"
  Meas Value: 6.75
- Molecule: "COc1cc(OC)cc(C(OC)C(=O)Nc2nnc(N[C@@H]3CCN(c4cccnn4)C3)s2)c1 (stereo partly shown)"
  Target Desc: "NCI-H1703 cells"
  Meas Value: 7.23

a. COc1cc([C@H](OC)C(=O)Nc2nnc(N[C@@H]3CCN(c4cccnn4)C3)s2)cc(N2CC(F)C2)c1 (single isomer, unassigned)
b. COc1cc(OC(F)(F)F)cc([C@H](OC)C(=O)Nc2nnc(N[C@@H]3CCN(c4cccnn4)C3)s2)c1 (single isomer, unassigned)
Form field 'greater pIC50' accepts a or b ; which applies? Use the label to indicate which entry you chose.
b
(b: 8.77, a: 7.36)
